# maps each entry to its melting point
Outcome Measure: melting point

> print(dat)
                           substance.smiles  experimental.value
1  CC(C)(C)COc1c(-c2ccc(S(C)(=O)=O)cc2)cnn(-c2ccc(F)c(F)c2)c1=O       126 to 128 °C
2  CS(=O)(=O)c1ccc(-c2cnn(C3CCCCC3)c(=O)c2-c2ccc(F)cc2)cc1       169 to 171 °C
3  CS(=O)(=O)c1ccc(-c2cnn(-c3ccc(F)c(Cl)c3)c(=O)c2-c2ccc(Cl)cc2)cc1              205 °C
4  Cc1ccc(-c2c(-c3ccc(S(C)(=O)=O)cc3)cnn(-c3ccc(F)cc3)c2=O)cc1F       245 to 248 °C
